Target: recombinant Mcl-1 (residues 172-327) (Homo sapiens (Human), UniProt Q07820)
Sequence (Q07820 172-327): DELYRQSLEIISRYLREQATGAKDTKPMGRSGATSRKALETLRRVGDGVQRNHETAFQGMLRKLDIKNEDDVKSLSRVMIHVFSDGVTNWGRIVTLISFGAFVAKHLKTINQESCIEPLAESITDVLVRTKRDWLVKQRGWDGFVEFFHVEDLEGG
Experiment: Fluorescence polarization anisotropy competition assay (FITC-Bak or FITC-Bim BH3 peptide) with Mcl-1
Type: binding
Conditions: Table 2; Ki bins given in nM; FITC-Bak or FITC-Bim peptide competition; Ki converted from IC50; read-out: Ki for Inhibition of Mcl-1
Below, each entry is listed with its recorded Ki.

compound | target.of.assay | Ki
Cc1cc(OCCCc2c(C(=O)NCc3cccc(C(=O)NS(=O)(=O)c4ccccc4C#N)c3)[nH]c3c(-c4c(C)n[nH]c4C)cccc23)cc(C)c1Cl | recombinant Mcl-1 (residues 172-327) (Homo sapiens (Human), UniProt Q07820) | < 50 nM

Data request: Consider the compound shown here: Cc1cc(OCCCc2c3n(c4c(-c5c(C)nn(C)c5C)c(Cl)ccc24)CCCN(Cc2cc(NCCC(C)C)cc(C(=O)O)c2)C3=O)cc(C)c1Cl What is its recorded Ki?
Data returned: < 50 nM

Data request: Consider the compound shown here: Cc1cc(OCCCc2c3n(c4c(-c5c(C)nn(C)c5C)c(Cl)ccc24)C(C)[C@@H](C)N(Cc2ccc(C(=O)O)o2)C3=O)cc(C)c1Cl (stereo partly drawn) What is its recorded Ki?
Data returned: < 50 nM

----------
Target: recombinant Mcl-1 (residues 172-327) (Homo sapiens (Human))
Assay: Fluorescence polarization anisotropy competition assay (FITC-Bak or FITC-Bim BH3 peptide) with Mcl-1
Format: binding
Conditions: Table 2; Ki bins given in nM; FITC-Bak or FITC-Bim peptide competition; Ki converted from IC50; read-out: Ki for Inhibition of Mcl-1
observation.type: Ki

Example results:
compound | Ki
Cc1cc(OCCCc2c3n(c4c(-c5c(C)nn(C)c5C)cc(Cl)cc24)CCCN(c2cccc(C(=O)O)c2)C3=O)cc(C)c1Cl [I-246] | 101 to 299 nM
Cc1cc(OCCCc2c3n(c4c(-c5c(C)nn(C)c5C)cccc24)CCCN(Cc2cc(C(=O)O)n(C)c2)C3=O)cc(C)c1Cl [I-79] | 51 to 100 nM
Cc1cc(OCCCc2c3n(c4c(-c5c(C)nn(C)c5C)c(Cl)ccc24)C[C@@H](C)N(Cc2ccc(C(=O)O)o2)C3=O)cc(C)c1Cl [I-123] | < 50 nM
Cc1cc(OCCCc2c3n(c4c(-c5c(C)nn(C)c5C)c(Cl)ccc24)CCCN(c2csc(C(=O)O)n2)C3=O)cc(C)c1Cl [I-360] | < 50 nM
Cc1cc(OCCCc2c3n(c4c(-c5c(C)nn(C)c5C)c(Cl)ccc24)CCC(C)N(Cc2ccc(C(=O)O)o2)C3=O)cc(C)c1Cl (stereo not shown) [I-126] | < 50 nM
Cc1cc(OCCCc2c(C(=O)Nc3cc(NC4CCOCC4)cc(C(=O)O)c3)[nH]c3c(-c4c(C)nn(C)c4C)c(Cl)ccc23)cc(C)c1Cl [I-209] | < 50 nM

Data request: Form: Entry = Cc1cc(OCCCc2c(C(=O)N3CCN(c4ccc(C(=O)O)cc4)CC3)n(C)c3c(-c4c(C)nn(C)c4C)c(Cl)ccc23)cc(C)c1Cl [I-339] | System = recombinant Mcl-1 (residues 172-327) (Homo sapiens (Human)) | Ki = ____
Data returned: < 50 nM

Data request: Form: Entry = Cc1cc(OCCCc2c3n(c4c(-c5c(C)nn(C)c5C)cccc24)CCN(Cc2cccc(-c4nnn[nH]4)c2)C3=O)cc(C)c1Cl [I-85] | System = recombinant Mcl-1 (residues 172-327) (Homo sapiens (Human)) | Ki = ____
Data returned: < 50 nM

Data request: Form: Entry = Cc1cc(OCCCc2c(C(=O)NCc3cccc(C(=O)O)c3)n(C)c3c(-c4c(C)nn(C)c4C)cccc23)cc(C)c1Cl [I-33] | System = recombinant Mcl-1 (residues 172-327) (Homo sapiens (Human)) | Ki = ____
Data returned: 51 to 100 nM

Data request: Form: Entry = Cc1cc(OCCCc2c3n(c4c(-c5c(C)nn(C)c5C)c(Cl)ccc24)CCN(c2ccc(C(=O)O)cc2)C3=O)cc(C)c1Cl [I-176] | System = recombinant Mcl-1 (residues 172-327) (Homo sapiens (Human)) | Ki = ____
Data returned: < 50 nM

Data request: Form: Entry = Cc1cc(OCCCc2c(C(=O)Nc3cc(C(=O)O)c4cc[nH]c4c3)[nH]c3c(-c4c(C)nn(C)c4C)c(Cl)ccc23)cc(C)c1Cl [I-238] | System = recombinant Mcl-1 (residues 172-327) (Homo sapiens (Human)) | Ki = ____
Data returned: < 50 nM

Data request: Form: Entry = Cc1cc(OCCCc2c(C(=O)N[C@H]3CCC[C@@H](C(=O)O)C3)[nH]c3c(-c4c(C)nn(C)c4C)c(Cl)ccc23)cc(C)c1Cl [I-331] | System = recombinant Mcl-1 (residues 172-327) (Homo sapiens (Human)) | Ki = ____
Data returned: < 50 nM

Data request: Form: Entry = Cc1cc(OCCCc2c(C(=O)NCCC(=O)NS(=O)(=O)c3ccc([N+](=O)[O-])cc3)[nH]c3ccccc23)cc(C)c1Cl [I-22] | System = recombinant Mcl-1 (residues 172-327) (Homo sapiens (Human)) | Ki = ____
Data returned: 101 to 299 nM
